# TGT: UniProtKB P41145
# Sequence (P41145 whole entry): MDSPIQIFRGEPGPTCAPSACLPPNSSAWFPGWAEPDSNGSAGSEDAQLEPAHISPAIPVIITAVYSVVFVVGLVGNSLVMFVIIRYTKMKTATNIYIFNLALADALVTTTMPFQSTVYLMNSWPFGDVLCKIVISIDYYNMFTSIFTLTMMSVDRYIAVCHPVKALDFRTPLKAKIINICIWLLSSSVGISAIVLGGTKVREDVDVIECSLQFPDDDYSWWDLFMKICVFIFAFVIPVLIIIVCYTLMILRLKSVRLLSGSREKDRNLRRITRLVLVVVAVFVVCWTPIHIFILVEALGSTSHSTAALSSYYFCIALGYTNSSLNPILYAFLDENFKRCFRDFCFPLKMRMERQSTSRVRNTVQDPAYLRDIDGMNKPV
Measured pKi accompanies every entry in the list below.
Please keep in mind that pKi is minus log10 of the molar concentration; only the number is needed.

COMPOUND: C[C@H]1C2Cc3ccc(C(=O)NCc4ccccc4)cc3[C@@]1(C)CCN2CC1CC1 (mixture of isomers)
pKi: 7.44
--
COMPOUND: C[C@H]1C2Cc3ccc(C(=O)NCCc4ccccc4)cc3[C@@]1(C)CCN2CC1CC1 (mixture of isomers)
pKi: 8.77
--
COMPOUND: C[C@H]1C2Cc3ccc(C(=O)Nc4ccccc4)cc3[C@@]1(C)CCN2CC1CC1
pKi: 6.57
--
COMPOUND: C[C@H]1C2Cc3ccc(C(=O)N(C)CCc4ccc(-c5ccccc5)cc4)cc3[C@@]1(C)CCN2CC1CC1 (racemic)
pKi: 7.96
--
COMPOUND: C[C@H]1C2Cc3ccc(C(=O)NCc4ccc(-c5ccccc5)cc4)cc3[C@@]1(C)CCN2CC1CC1 (mixture of isomers)
pKi: 7.59
--
COMPOUND: CC[C@@]12CCN(CC3CC3)C(C(=O)c3ccc(C(=O)NCCc4ccc(-c5ccccc5)cc4)cc31)[C@@H]2C (mixture of isomers)
pKi: 8.89

Q: Checklist item: pKi tested on UniProtKB P41145, entry C[C@H]1C2Cc3ccc(C(=O)Nc4ccc(-c5ccccc5)cc4)cc3[C@@]1(C)CCN2CC1CC1 (mixture of isomers) , value?
Ans: 7.57

Q: Checklist item: pKi tested on UniProtKB P41145, entry C[C@H]1C2Cc3ccc(C(=O)NCCCc4ccccc4)cc3[C@@]1(C)CCN2CC1CC1 (mixture of isomers) , value?
Ans: 8.52

Q: Checklist item: pKi tested on UniProtKB P41145, entry CC[C@@]12CCN(CC3CC3)C(C(=O)c3ccc(C(N)=O)cc31)[C@@H]2C , value?
Ans: 9.33
